tested-on: Palmitoleoyl-protein carboxylesterase NOTUM (Homo sapiens)
experimental-protocol: Inhibition of rhodamine-tagged FP probe binding to NOTUM in human SW620 cells conditioned media pretreated for 30 mins followed by rhodamine-tagged FP probe addition and measured after 30 mins by SDS-PAGE fluorescence analysis
Assay type: cell-based
Recorded IC50 by entry
assay-readout: IC50 (nM)

COc1ccc(N2CCN(C(=O)ON3C(=O)C4CN(Cc5ccc(Cl)cc5)CCN4C3=O)CC2)cc1 (centres undefined) :: 290
COc1ccc(N2CCN(C(=O)ON3C(=O)C4CN(Cc5ccccc5Cl)CCN4C3=O)CC2)cc1 (centres undefined) :: 200

---

tested-on: Palmitoleoyl-protein carboxylesterase NOTUM (Homo sapiens, UniProt Q6P988)
experimental-protocol: Inhibition of rhodamine-tagged FP probe binding to recombinant human C-terminal FLAG-tagged NOTUM expressed in HEK293T cells pretreated for 30 mins followed by rhodamine-tagged FP probe addition and measured after 30 mins by SDS-PAGE fluorescence analysis
Assay type: cell-based
assay-readout: IC50

O=C1C2CN(Cc3ccc(Oc4ccccc4)nc3)CCN2C(=O)N1OC(=O)N1CCOc2ccccc21 (stereo unspecified) :: 1510 nM

---

tested-on: Palmitoleoyl-protein carboxylesterase NOTUM (Homo sapiens, UniProt Q6P988)
Sequence (Q6P988 whole entry): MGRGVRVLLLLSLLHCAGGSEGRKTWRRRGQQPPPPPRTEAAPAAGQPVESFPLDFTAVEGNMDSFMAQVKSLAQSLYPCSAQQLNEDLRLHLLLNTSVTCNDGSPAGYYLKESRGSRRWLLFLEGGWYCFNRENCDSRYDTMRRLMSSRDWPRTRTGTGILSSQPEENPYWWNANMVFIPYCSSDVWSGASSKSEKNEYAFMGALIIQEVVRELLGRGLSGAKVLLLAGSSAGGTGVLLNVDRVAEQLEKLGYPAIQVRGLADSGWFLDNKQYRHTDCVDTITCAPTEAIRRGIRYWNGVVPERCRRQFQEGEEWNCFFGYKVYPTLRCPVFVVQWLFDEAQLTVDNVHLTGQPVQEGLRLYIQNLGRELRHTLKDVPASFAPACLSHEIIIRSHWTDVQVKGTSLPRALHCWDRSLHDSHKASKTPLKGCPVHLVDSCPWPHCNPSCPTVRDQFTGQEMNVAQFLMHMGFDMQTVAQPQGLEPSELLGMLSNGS
experimental-protocol: Inhibition of NOTUM in human SW620 cells conditioned medium assessed as preservation of Wnt3A activity pretreated for 1 hr followed by Wnt3A producing L-cell addition for 2 hrs and subsequent […]-STF cell addition and measured after 24 hrs by luciferase reporter gene assay
Type: cell-based
assay-readout: IC50

O=C(c1ccc(Cl)cc1)N1CCN2C(=O)N(OC(=O)N3CCOc4ccccc43)C(=O)C2C1 (stereo unspecified) :: > 5 µM
